Test system: CCRF-HSB-2
TEST DESCRIPTION: Compound was evaluated for the cytotoxicity against human T-cell leukemia, CCRF-HSB-2 by using MTT assay.
Type: functional, cell-based
ASSAY ENDPOINT: IC50 (µg/mL)
Answer in µg/mL, number only, no unit symbol.

## Input Look up IC50 for this molecule: C[C@@]1(CO)O[C@H](n2ccc(N)nc2=O)C[C@H]1O
## Output 0.12

## Input Could you do the same for C[C@]1(CO)O[C@@H](n2cc(/C=C/Br)c(=O)[nH]c2=O)CC1O (single isomer, unassigned) , please?
## Output 0.45

====

Tested on: CCRF-HSB-2
TEST DESCRIPTION: Compound was evaluated for the cytotoxicity against human T-cell leukemia, CCRF-HSB-2 by using MTT assay.
Format: functional, cell-based
ASSAY ENDPOINT: IC50

## Input Look up IC50 for this compound: O=c1[nH]c(=O)n([C@H]2C[C@H](O)[C@@H](CO)O2)cc1/C=C/Br [BRIVUDINE]
## Output > 100 µg/mL

## Input Could you do the same for O=c1[nH]c(=O)n([C@@H]2O[C@H](CO)[C@@H](O)[C@H]2O)cc1/C=C/Br , please?
## Output > 100 µg/mL

## Input Could you do the same for C[C@]1(CO)OC(n2cc(/C=C/Br)c(=O)[nH]c2=O)[C@H](O)[C@@H]1O (stereo partly drawn) , please?
## Output > 100 µg/mL
